Provenance of the data: paper PMC6731142

ASSAY_TARGET: human TRPA1, full-length wild type (human, UniProt O75762 1-1119)
Sequence (O75762 whole entry): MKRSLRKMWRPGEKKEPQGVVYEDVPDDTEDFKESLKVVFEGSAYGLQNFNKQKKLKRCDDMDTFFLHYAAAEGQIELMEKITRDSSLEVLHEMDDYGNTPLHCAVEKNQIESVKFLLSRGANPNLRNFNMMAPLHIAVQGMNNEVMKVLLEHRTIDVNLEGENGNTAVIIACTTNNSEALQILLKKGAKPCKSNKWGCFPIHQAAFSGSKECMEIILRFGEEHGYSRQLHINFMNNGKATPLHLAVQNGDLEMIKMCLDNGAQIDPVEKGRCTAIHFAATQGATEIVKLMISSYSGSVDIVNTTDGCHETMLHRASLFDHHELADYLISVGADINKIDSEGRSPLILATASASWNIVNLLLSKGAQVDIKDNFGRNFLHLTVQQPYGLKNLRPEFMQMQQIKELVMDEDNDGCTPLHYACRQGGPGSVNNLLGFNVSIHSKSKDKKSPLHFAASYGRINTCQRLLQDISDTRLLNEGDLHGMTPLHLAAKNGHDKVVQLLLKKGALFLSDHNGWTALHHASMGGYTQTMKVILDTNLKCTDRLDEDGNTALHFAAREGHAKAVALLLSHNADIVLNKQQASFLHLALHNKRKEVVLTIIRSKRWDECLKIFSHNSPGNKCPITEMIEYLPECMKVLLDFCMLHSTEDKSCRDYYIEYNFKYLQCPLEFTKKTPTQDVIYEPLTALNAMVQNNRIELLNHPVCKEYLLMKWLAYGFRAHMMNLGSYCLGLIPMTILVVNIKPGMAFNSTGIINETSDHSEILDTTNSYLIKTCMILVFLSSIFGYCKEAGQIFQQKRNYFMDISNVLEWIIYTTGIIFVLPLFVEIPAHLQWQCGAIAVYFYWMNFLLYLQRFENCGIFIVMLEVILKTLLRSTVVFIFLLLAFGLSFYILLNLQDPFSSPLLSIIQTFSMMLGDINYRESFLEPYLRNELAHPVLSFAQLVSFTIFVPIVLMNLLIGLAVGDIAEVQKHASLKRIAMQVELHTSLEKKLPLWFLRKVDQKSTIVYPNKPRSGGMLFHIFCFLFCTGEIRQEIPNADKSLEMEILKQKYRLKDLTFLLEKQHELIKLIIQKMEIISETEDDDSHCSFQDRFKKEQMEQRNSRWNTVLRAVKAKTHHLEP
ASSAY_OVERVIEW: BLI
REPORTED_ENDPOINT: pKd
Just so you know, pKd here is -log10 of the concentration in molar units; reply with that number alone.

Ask | What value of pKd has been recorded for this entry: GSGSASPQQAKYCYEQCNVNKVPFDQCYQMCSPLERS (biotin on the N-terminus; directed disulfide bonds C9-C27 and C13-C23 (WaTx numbering)) [Biotin-GSGS-WaTx (N-terminal biotinylated Wasabi Receptor Toxin)]
Reply | 12.48
